- Test system: ACHN renal
- run description: NCI tumour cell line growth inhibition, 48 h
Assignment: determine reported TGI for the given compounds.

Look at each compound and report its TGI.
1. O=C1C(N2CCNCC2)=C(Cl)C(=O)c2ncccc21
2. O=C1NC(=O)C2C(=O)NC(=O)C1C2(c1ccccc1)c1cc[nH]c1 (stereo not given)
3. Clc1cc(Cc2cc(Cl)c(Cl)c3c2OCOC3)c2c(c1Cl)COCO2
4. NC(=S)N/N=C(\Cc1nc2ccc(Cl)cc2[nH]c1=O)C(=O)Nc1ccc(Cl)cc1
5. CC(=O)OCC1OC(n2c(-c3ccccc3)c(C(C)=O)c(-c3ccc(Cl)cc3)c(C#N)c2=S)C(OC(C)=O)C(OC(C)=O)C1OC(C)=O (stereo not given)

["> 10 µM", "> 100 µM", "> 100 µM", "> 100 µM", "> 100 µM"]

Ref: PubChem BioAssay (NCI)
